Exercise: for every item that follows, state its recorded pKd.
target of assay: T1, rat FcRn (rat, UniProt P13599 23-298; P07151 21-119, limits assumed)
T1 sequence (looked up) 1: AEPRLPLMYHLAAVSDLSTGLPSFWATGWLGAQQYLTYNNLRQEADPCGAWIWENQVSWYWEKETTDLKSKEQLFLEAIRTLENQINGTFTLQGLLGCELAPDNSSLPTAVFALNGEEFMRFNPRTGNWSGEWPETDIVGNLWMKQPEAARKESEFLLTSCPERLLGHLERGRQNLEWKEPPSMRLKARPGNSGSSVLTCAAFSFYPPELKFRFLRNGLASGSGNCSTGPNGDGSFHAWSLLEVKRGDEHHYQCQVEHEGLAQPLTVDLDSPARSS
T1 sequence (looked up) 2: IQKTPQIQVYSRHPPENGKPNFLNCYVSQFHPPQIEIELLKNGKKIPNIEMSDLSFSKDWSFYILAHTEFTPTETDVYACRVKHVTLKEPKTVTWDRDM
assay: SPR, pH 7.4
Recall that pKd is obtained by taking minus log10 of the concentration measured in molar.

Prompt: If you can, please state the reported pKd value of Fc Fragment 2 (other, Human IgG1 Fc fragment; substitutions already in the entry; also called Fc195) DKTHTCPPCPAPELLGGPSVFLFPPKPKDTLYITREPEVTCVVVDVSHEDPEVKFNWYVDGVEVHNAKTKPREEQYNSTYRVVSVLTVLHQDWLNGKEYKCKVSNKALPAPIEKTISKAKGQPREPQVYTLPPSRDELTKNQVSLTCLVKGFYPSDIAVEWESNGQPENNYKTTPPVLDSDGSFFLYSKLTVDKSRWQQGNVFSCSVLHEALKFHYTQKSLSLSPG .
Completion: 7.93

Prompt: Can you look up the measured pKd of Fc Fragment 11 (other, Human IgG1 Fc fragment; substitutions already in the entry) DKTHTCPPCPAPELLGGPSVFLFPPKPKDTLYITREPEVTCVVVDVSHEDPEVKFNWYVDGVEVHNAKTKPREEQYNSTYRVVSVLTVLHQDWLNGKEYKCKVSNKALPAPIEKTISKAKGQPREPQVYTLPPSRDELTKNQVSLTCLVKGFYPSDIAVEWESNGQPENNYKTTPPVLDSDGSFFLYSKLTVDKSRWQQGNVFSCSVLHEALHFHYTQKSLSLSPG for me?
Completion: 7.83

Prompt: Which value of pKd has been reported for Fc Fragment 14 (other, Human IgG1 Fc fragment; substitutions already in the entry) DKTHTCPPCPAPELLGGPSVFLFPPKPKDTLYITREPEVTCVVVDVSHEDPEVKFNWYVDGVEVHNAKTKPREEQYNSTYRVVSVLTVLHQDWLNGKEYKCKVSNKALPAPIEKTISKAKGQPREPQVYTLPPSRDELTKNQVSLTCLVKGFYPSDIAVEWESNGQPENNYKTTPPVLDSDGSFFLYSKLTVDKSRWQQGNVFSCSVLHEALRFHYTQKSLSLSPG in the records?
Completion: 7.91
